The reported measurements were obtained from patent US20120108501A1.

Give measured AUCall Mean for each item. Keep answers brief.
Protocol summary: Pharmacokinetics of released PEGylated protease inhibitor following P.O. administration of prodrugs in rats
Format: in vivo, male Sprague-Dawley rats
Design: concentration or dose not given beside the values
Particulars: mPEG3-atazanavir in plasma after PO administration of mPEG3-ATV or of the listed prodrug, rats (n = 4-5)
The response must be a number in ng·h/mL with no trailing unit.

// query Look at this compound and give its reported AUCall Mean. CCOC(CC)OC(CN(Cc1ccc(-c2ccccn2)cc1)NC(=O)C(NC(=O)OC)C(C)(C)C)C(Cc1ccccc1)NC(=O)C(NC(=O)OCCOCCOCCOC)C(C)(C)C (mixture of isomers) [1-ethoxypropoxy-mPEG3-Atazanivir, atazanavir-1-ethoxypropoxy-mPEG3]
// result 849

// query Look at this compound and give its reported AUCall Mean. CCCCC(=O)OC(CN(Cc1ccc(-c2ccccn2)cc1)NC(=O)C(NC(=O)OC)C(C)(C)C)C(Cc1ccccc1)NC(=O)C(NC(=O)OCCOCCOCCOC)C(C)(C)C (centres unmarked) [C4H9CO-mPEG3-ATV, C4H9CO-mPEG3-atazanavir]
// result 40.1

###

Give measured MRT last Mean for each item. Keep answers brief.
Protocol summary: Pharmacokinetics of released PEGylated protease inhibitor following P.O. administration of prodrugs in rats
Type: in vivo, male Sprague-Dawley rats
Particulars: mPEG6-atazanavir in plasma after PO administration of mPEG6-ATV or of the listed prodrug, rats (n = 4-5)
The response must be a number in h with no trailing unit.

// query Look at this compound and give its reported MRT last Mean. CCOCOC(CN(Cc1ccc(-c2ccccn2)cc1)NC(=O)C(NC(=O)OC)C(C)(C)C)C(Cc1ccccc1)NC(=O)C(NC(=O)OCCOCCOCCOCCOCCOCCOC)C(C)(C)C (centres unmarked)
// result 10.1

// query Look at this compound and give its reported MRT last Mean. COCCOCCOCCOCCOCCOCCOC(=O)N[C@H](C(=O)N[C@@H](Cc1ccccc1)[C@H](CN(Cc1ccc(-c2ccccn2)cc1)NC(=O)[C@@H](NC(=O)OC)C(C)(C)C)OC(=O)CNC(=O)[C@@H](N)Cc1ccccc1)C(C)(C)C.Cl [Phe-Gly-mPEG6-ATV, Phe-Gly-mPEG6-Atazanavir Hydrochloride]
// result 26.1

// query Look at this compound and give its reported MRT last Mean. COCCOCCOCCOCCOCCOCCOC(=O)NC(C(=O)NC(Cc1ccccc1)C(CN(Cc1ccc(-c2ccccn2)cc1)NC(=O)C(NC(=O)OC)C(C)(C)C)OP(=O)(O)O)C(C)(C)C (centres unmarked) [mPEG6-ATV-phosphate, mPEG6-atazanavir phosphate]
// result 23.4

// query Look at this compound and give its reported MRT last Mean. CCOC(=O)OC(CN(Cc1ccc(-c2ccccn2)cc1)NC(=O)C(NC(=O)OC)C(C)(C)C)C(Cc1ccccc1)NC(=O)C(NC(=O)OCCOCCOCCOCCOCCOCCOC)C(C)(C)C (centres unmarked) [mPEG6-ATV-Ethyl Carbonate, mPEG6-Atazanavir Ethyl Carbonate]
// result 10.3

// query Look at this compound and give its reported MRT last Mean. CCCCC(=O)OC(CN(Cc1ccc(-c2ccccn2)cc1)NC(=O)C(NC(=O)OC)C(C)(C)C)C(Cc1ccccc1)NC(=O)C(NC(=O)OCCOCCOCCOCCOCCOCCOC)C(C)(C)C (centres unmarked)
// result 1.14

// query Look at this compound and give its reported MRT last Mean. COCCOCCOCCOCCOCCOCCOC(=O)N[C@H](C(=O)N[C@@H](Cc1ccccc1)[C@H](CN(Cc1ccc(-c2ccccn2)cc1)NC(=O)[C@@H](NC(=O)OC)C(C)(C)C)OC(=O)[C@H](Cc1ccccc1)NC(=O)[C@@H](N)CC(C)C)C(C)(C)C.Cl [Leu-Phe-mPEG6-ATV, Leu-Phe-mPEG6-Atazanavir Hydrochloride]
// result 13.8

// query Look at this compound and give its reported MRT last Mean. CCNC(=O)OC(CN(Cc1ccc(-c2ccccn2)cc1)NC(=O)C(NC(=O)OC)C(C)(C)C)C(Cc1ccccc1)NC(=O)C(NC(=O)OCCOCCOCCOCCOCCOCCOC)C(C)(C)C (centres unmarked) [mPEG6-ATV-ethylcarbamate, mPEG6-Atazanavir-NH-ethyl carbamate]
// result 15.1

// query Look at this compound and give its reported MRT last Mean. CCOC(CC)OC(CN(Cc1ccc(-c2ccccn2)cc1)NC(=O)C(NC(=O)OC)C(C)(C)C)C(Cc1ccccc1)NC(=O)C(NC(=O)OCCOCCOCCOCCOCCOCCOC)C(C)(C)C (mixture of isomers)
// result 5.16

// query Look at this compound and give its reported MRT last Mean. COCCOCCOCCOCCOCCOCCOC(=O)NC(C(=O)NC(Cc1ccccc1)C(CN(Cc1ccc(-c2ccccn2)cc1)NC(=O)C(NC(=O)OC)C(C)(C)C)OC(=O)COCCOC(=O)C(Cc1ccccc1)NC(=O)C(N)Cc1ccccc1)C(C)(C)C (centres unmarked)
// result 21.4

// query Look at this compound and give its reported MRT last Mean. COCCOCCOCCOCCOCCOCCOC(=O)N[C@H](C(=O)N[C@@H](Cc1ccccc1)[C@H](CN(Cc1ccc(-c2ccccn2)cc1)NC(=O)[C@@H](NC(=O)OC)C(C)(C)C)OC(=O)[C@H](Cc1ccccc1)NC(=O)[C@@H](N)Cc1ccccc1)C(C)(C)C.Cl [Phe-Phe-mPEG6-ATV, Phe-Phe-mPEG6-Atazanavir Hydrochloride]
// result 16.2

// query Look at this compound and give its reported MRT last Mean. COCCOCCOCCOCCOCCOCCOC(=O)N[C@H](C(=O)N[C@@H](Cc1ccccc1)[C@H](CN(Cc1ccc(-c2ccccn2)cc1)NC(=O)[C@@H](NC(=O)OC)C(C)(C)C)OC(=O)CNC(=O)[C@@H](N)CC(C)C)C(C)(C)C.Cl [Leu-Gly-mPEG6-ATV, Leu-Gly-mPEG6-Atazanavir Hydrochloride]
// result 27.2

// query Look at this compound and give its reported MRT last Mean. `COCCOCCOCCOCCOCCOCCOC(=O)N[C@H](C(=O)N[C@@H](Cc1ccccc1)[C@@H](O)CN(Cc1ccc(-c2ccccn2)cc1)NC(=O)[C@@H](NC(=O)OC)C(C)(C)C)C(C)(C)C`
// result 4.93

// query Look at this compound and give its reported MRT last Mean. CCCCCCCCCCCCCCCCOCC(COP(=O)(O)OC(CN(Cc1ccc(-c2ccccn2)cc1)NC(=O)C(NC(=O)OC)C(C)(C)C)C(Cc1ccccc1)NC(=O)C(NC(=O)OCCOCCOCCOCCOCCOCCOC)C(C)(C)C)OC (centres unmarked)
// result 0.250

// query Look at this compound and give its reported MRT last Mean. COCCOCCOCCOCCOCCOCCOC(=O)NC(C(=O)NC(Cc1ccccc1)C(CN(Cc1ccc(-c2ccccn2)cc1)NC(=O)C(NC(=O)OC)C(C)(C)C)OC(C)=O)C(C)(C)C (centres unmarked)
// result 13.8
